// reported Ki for each item listed
target.or.test.system: D-2 dopamine receptor (Rattus norvegicus, UniProt P61169)
Sequence (P61169 whole entry): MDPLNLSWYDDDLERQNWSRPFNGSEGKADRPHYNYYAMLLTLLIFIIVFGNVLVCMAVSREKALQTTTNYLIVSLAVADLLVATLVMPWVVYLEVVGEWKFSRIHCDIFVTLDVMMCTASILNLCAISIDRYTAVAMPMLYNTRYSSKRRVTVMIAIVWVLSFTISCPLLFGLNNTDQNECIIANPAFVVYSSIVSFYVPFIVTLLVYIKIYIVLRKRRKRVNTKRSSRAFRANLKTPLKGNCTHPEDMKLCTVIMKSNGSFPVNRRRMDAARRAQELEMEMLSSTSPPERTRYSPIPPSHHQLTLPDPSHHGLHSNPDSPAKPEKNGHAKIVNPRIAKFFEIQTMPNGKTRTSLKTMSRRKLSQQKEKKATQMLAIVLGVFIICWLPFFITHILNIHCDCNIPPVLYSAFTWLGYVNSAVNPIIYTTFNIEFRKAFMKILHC
test.name: [3H]Spiroperidol binding inhibition, homogenized limbic brain tissue
Give the number; nM is assumed, so skip it.

Worked cases, answers included:
>  <molecule>
O=C1C2CC(C(=O)N1CCCCN1CCN(c3ncccn3)CC1)C1C3CCC(C3)C21 (stereo not shown)

>  <target.or.test.system>
D-2 dopamine receptor (Rattus norvegicus, UniProt P61169)

>  <Ki (nM)>
174

$$$$
>  <molecule>
COc1ccccc1N1CCN(CCCCN2C(=O)C3CC(C2=O)C2C3C3C4CC5C3C5C42)CC1 (stereo not shown)

>  <target.or.test.system>
D-2 dopamine receptor (Rattus norvegicus, UniProt P61169)

>  <Ki (nM)>
18

$$$$
>  <molecule>
O=C1C2CC(C(=O)N1CCCCN1CCN(c3ncccn3)CC1)C1C2C2C3CC4C2C4C31 (stereo not shown)

>  <target.or.test.system>
D-2 dopamine receptor (Rattus norvegicus, UniProt P61169)

>  <Ki (nM)>
56

$$$$

Note to self: Ki recorded for O=C1C2CC(C(=O)N1CCCCN1CCN(c3cccc(C(F)(F)F)c3)CC1)C1C2C2C3CC4C2C4C31 (stereo not shown) was 30
